System: KLK2 mRNA
Experiment: KLK2 mRNA (AR target gene) in C4-2B MR cells
Assay type: cell-based, human
Conditions: 0.04 μM
Oligonucleotides are written 5' to 3', each unit as a sugar letter and its base; * is a phosphorothioate linkage, no mark a phosphodiester; rarer units and linkages stand in square brackets, end groups in braces. Plain capitals give the bases only. e = 2'-O-(2-methoxyethyl) (MOE); l = locked nucleic acid (LNA); k = constrained ethyl (cEt); [5mC] = 5-methylcytosine; d = 2'-deoxy (DNA)
Param threshold (10%) applies to Percent inhibition of KLK2 mRNA in C4-2B MR cells; output T when value >= threshold, F when value < threshold.

SUBSTANCE	QUALITATIVE_LABEL
549434 (k[5mC]*kT*kA*dA*dA*d[5mC]*dT*dT*d[5mC]*d[5mC]*d[5mC]*dG*dT*kG*kG*k[5mC]) [compound 549434]	F
554221 (ACCAAGTTTCTTCAGC; sugars from the 5' end l3 d10 l3, all phosphorothioate, methylation of C not given here) [compound 554221]	T
549458 (kG*kT*kT*dG*dA*dT*dT*dT*dA*dA*dT*dG*dG*kT*kT*kG) [compound 549458]	T

For this substance, is measured Percent inhibition of KLK2 mRNA in C4-2B MR cells 10% or higher? 549372 (kA*kA*kG*dT*dT*dG*dT*dA*dG*dT*dA*dG*dT*k[5mC]*kG*k[5mC]) [compound 549372]
T

Determine whether measured Percent inhibition of KLK2 mRNA in C4-2B MR cells meets or exceeds 10% for 347526 (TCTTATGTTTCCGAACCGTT; sugars from the 5' end e5 d10 e5, backbone and methylation of C not given here) [compound 347526]
T
